- target: CREBZF (Homo sapiens, UniProt Q9NS37)
- Construct: made in house
- Sequence (Q9NS37 204-267 limits assumed): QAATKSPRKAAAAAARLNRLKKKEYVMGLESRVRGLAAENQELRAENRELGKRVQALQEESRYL
- testDescription: Direct-binding FRET assay
- assaySetup: 4°C; C-terminal fluorescein design as donor, TAMRA target titrated; read-out: Kd
Where no end group is shown, it is not given here.
metricName: Kd

Query string: Record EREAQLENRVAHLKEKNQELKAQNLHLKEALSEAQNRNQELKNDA [XBP1-d1] : what is its Kd with CREBZF (Homo sapiens, UniProt Q9NS37)?
Result string: > 1000 nM

* * *

I'd appreciate it if you could supply Kd values for the items below.
- target: ATF2 (Homo sapiens, UniProt P15336)
- Construct: made in house
- Sequence (P15336 352-415 limits assumed): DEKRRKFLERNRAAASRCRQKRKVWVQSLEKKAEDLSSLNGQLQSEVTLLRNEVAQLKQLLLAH
- testDescription: Direct-binding FRET assay
- assaySetup: 37°C; N-terminal rhodamine design; mean or single; read-out: Kd
Where no end group is shown, it is not given here.

Query string: Can you look up the measured Kd of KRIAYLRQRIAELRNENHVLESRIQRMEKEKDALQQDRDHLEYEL [ATF5-d1] for me?
Result string: > 1 µM

Query string: Can you look up the measured Kd of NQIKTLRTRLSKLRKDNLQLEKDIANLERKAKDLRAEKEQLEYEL [ATF4-d1] for me?
Result string: > 1 µM

Query string: Can you look up the measured Kd of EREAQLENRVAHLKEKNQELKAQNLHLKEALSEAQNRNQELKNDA [XBP1-d1] for me?
Result string: > 1 µM

* * *

- target: MAFF (Homo sapiens)
- Construct: made in house
- Sequence (Q9ULX9 51-114 limits assumed): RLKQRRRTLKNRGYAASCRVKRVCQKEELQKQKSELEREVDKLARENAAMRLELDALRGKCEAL
- testDescription: Direct-binding FRET assay
- assaySetup: 37°C; C-terminal fluorescein design as donor, TAMRA target titrated; read-out: Kd
- Experimental: The direct binding assay was performed manually in 384-well plates and is similar to a previously described assay. Wells were filled with 20 μL of 1 mM TCEP-HCl. […] Briefly, the Kd of the designed peptide homodimer was experimentally determined and used with previously determined target homodimer Kd values to determine the heterodimer Kd. […] A minimum 15% change in the donor fluorescence upon titrating the acceptor peptide from 0 to 1000 nM was required for a fit to be attempted. […]
Where no end group is shown, it is not given here.
metricName: Kd

Query string: Can you look up the measured Kd of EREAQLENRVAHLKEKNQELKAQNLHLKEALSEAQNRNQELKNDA [XBP1-d1] for me?
Result string: > 1000 nM

* * *

- target: BATF (Homo sapiens, UniProt Q16520)
- Construct: made in house
- Sequence (Q16520 26-89 limits assumed): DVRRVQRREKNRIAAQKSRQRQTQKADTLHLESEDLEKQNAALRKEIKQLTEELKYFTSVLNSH
- testDescription: Direct-binding FRET assay
- assaySetup: Kd, 4°C; N-terminal rhodamine design; mean or single
pKd: −log10 of the molar value. Where no end group is shown, it is not given here.
metricName: pKd

Query string: Can you look up the measured pKd of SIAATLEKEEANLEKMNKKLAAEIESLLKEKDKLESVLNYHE [JUN-d1] for me?
Result string: < 6.00

* * *

- target: JUNB (Homo sapiens)
- Construct: made in house
- Sequence (P17275 268-331 limits assumed): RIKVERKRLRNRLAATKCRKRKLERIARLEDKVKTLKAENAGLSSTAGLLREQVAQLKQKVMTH
- testDescription: Direct-binding FRET assay
- assaySetup: 37°C; N-terminal rhodamine design; mean or single; read-out: Kd
Where no end group is shown, it is not given here.
metricName: Kd

Query string: Can you look up the measured Kd of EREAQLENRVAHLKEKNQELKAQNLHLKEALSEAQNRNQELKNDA [XBP1-d1] for me?
Result string: > 1000 nM

Query string: Can you look up the measured Kd of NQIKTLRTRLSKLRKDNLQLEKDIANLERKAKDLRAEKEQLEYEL [ATF4-d1] for me?
Result string: > 1000 nM

Query string: Can you look up the measured Kd of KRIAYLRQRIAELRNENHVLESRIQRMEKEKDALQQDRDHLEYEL [ATF5-d1] for me?
Result string: > 1000 nM
